Source of measurements: paper PMC10397247

Target: T1, 4H3627-AA
T1 chain: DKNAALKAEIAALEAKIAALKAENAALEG
Experiment: two-hybrid library CCmax;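 also: natural log of median RNA to DNA barcode read ratio; higher means stronger binding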
Conditions: mean of both orientations
In this scheme, each record receives a class according to its interaction score; the ranges are low = under -0.8, middle = from -0.8 up to -0.1, high = -0.1 and over

Here are 3 binders together with their reported answers.
| binder | class-assignment |
| --- | --- |
| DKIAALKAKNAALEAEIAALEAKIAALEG [4H2949-AA] | low |
| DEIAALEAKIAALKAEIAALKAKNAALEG [4H335-AA] | high |
| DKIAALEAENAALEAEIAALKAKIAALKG [4H2190-AA] | middle |

Now look at this entry.
Q. Assign a bin to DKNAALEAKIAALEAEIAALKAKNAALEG [4H3343-AA]
A. middle
